SYSTEM_UNDER_TEST: Endothelial PAS domain-containing protein 1 (Homo sapiens)
EXPERIMENTAL_DETAILS: HIF-2a and HIF-1a reporter inhibition panel, dose response, selectivity assay for HIF-2a inhibitor project, cell-based, luminescence (AID 651581)
EXPERIMENTAL_CONDITIONS: HIF-2a PANC, run 2
pIC50: −log10 of the molar value.
ATTRIBUTE_MEASURED: pIC50

INSERT INTO assay_data (smi, attribute_measured, observed_measurement) VALUES
  ('O=C(CSc1nnc(-c2ccc(Br)cc2)o1)Nc1cccc(C(=O)O)c1', 'pIC50', '< 4.00'),
  ('Cc1ccc(/C=N/Nc2cccc(C(=O)O)c2)s1', 'pIC50', '< 4.00'),
  ('C/C(=N\OCc1cccc(C(=O)O)c1)c1ccc(Cl)cc1', 'pIC50', '< 4.00'),
  ('Cc1ccc(NC(=O)c2cc(N3C(=O)C=CC3=O)ccc2N2CCOCC2)cc1Cl', 'pIC50', '< 4.00'),
  ('O=C(O)c1cccc(NC(=S)NC(=O)c2ccc3ccccc3c2)c1', 'pIC50', '< 4.00'),
  ('COC(=O)c1ccc(C(=O)OC)c(-n2c(=O)c3ccccc3c3ccccc3c2=O)c1', 'pIC50', '< 4.00'),
  ('CS(=O)(=O)c1ccc(-c2cn3cc(C(=O)O)ccc3n2)cc1', 'pIC50', '< 4.00'),
  ('Cc1cc(C)cc(C(=O)NC(=S)Nc2ccc(-c3cc4ccccc4oc3=O)cc2)c1', 'pIC50', '< 4.00');

Hello, the source for this data is PubChem BioAssay AID651581, in case you need it.
